These measurements were taken from patent US11395822B2.

As shown below, each of these molecules has a reported IC50 value.
Tested on: Endogenous Huntingtin Protein
protocol summary: Endogenous Huntingtin Protein Assay (ELISA-based MSD electrochemiluminescence)
Format: cell-based
condition set: MSD plates coated with MW1 (expanded polyglutamine) or MAB2166 capture antibody

Illustrative cases are given below, each with its answer.
>  <compound structure string>
Cc1cn2nc(-c3cc(=O)n4cc(N5CCN[C@H](C)C5)ccc4n3)cc(C)c2n1

>  <assayed system>
Endogenous Huntingtin Protein

>  <measure>
IC50

>  <value observed>
≤ 0.1 µM

$$$$
>  <compound structure string>
Cc1cn2nc(-c3cc(=O)n4cc(N5CCNC(C)(C)C5)ccc4n3)cc(C)c2n1

>  <assayed system>
Endogenous Huntingtin Protein

>  <measure>
IC50

>  <value observed>
0.1 to 0.5 µM

$$$$

Query molecule follows.
Lab note: measured IC50 of Cc1cn2nc(-c3cc(=O)n4cc(N5CCNC6(CC6)C5)cc(C)c4n3)cc(C)c2n1 was 1 to 3 µM
